Target: menin/MLL (Gal4-Menin and MLL1-46-VP16) in HEK293 cells (Homo sapiens)
Method Description: Mammalian cellular two-hybrid assay in HEK293 cells (Assay 2, cell assay)
Settings: Gal4-Menin/MLL1-46-VP16 two-hybrid, NanoLuc luciferase reporter, 16-18 h
pIC50: −log10 of the molar value.
Below, each of the molecules is paired with its reported pIC50 value.

molecule=CC(C)N1CCC2(CCN(c3ncnc4sc(CC(F)(F)F)cc34)CC2)C1 parameter_measured=pIC50 measured_result="≤ 6.00"
molecule="CC(=O)Nc1cccc(CN2CCC3(CCN(c4ncnc5sc(CC(F)(F)F)cc45)C3)C2)c1 (stereo not shown)" parameter_measured=pIC50 measured_result="6.00 to 7.00"
molecule=CS(=O)(=O)Nc1ccc(CN2CCC3(CC2)CN(c2ncnc4sc(CC(F)(F)F)cc24)C3)cc1 parameter_measured=pIC50 measured_result="6.00 to 7.00"

Would you kindly look at the next entry?
molecule Cc1cc(NS(C)(=O)=O)ccc1CN1CCC2(CCN(c3ncnc4sc(CC(F)(F)F)cc34)C2)C1 (stereo not shown) , pIC50 observed: 6.00 to 7.00

###

Target: wild-type menin / MLL-AF9 fusion protein (Homo sapiens)
Construct: HEK293 cleared lysate (MLL-AF9-FLAG)
Method Description: AlphaLISA menin/MLL binding assay, wild-type menin (Assay 1)
Settings: biotinylated wild-type menin 5 nM, MLL-AF9-FLAG lysate
Below, each of the molecules is paired with its reported IC50 value.

Examples from the recorded data:
molecule="O=c1[nH]c2ccc(CN3CCC4(CCN(c5ncnc6sc(CC(F)(F)F)cc56)C4)C3)cc2[nH]1 (centres unmarked) [Example 39]" target="wild-type menin / MLL-AF9 fusion protein (Homo sapiens)" parameter_measured=IC50 measured_result="< 100 nM"
molecule="FC(F)(F)Cc1cc2c(N3CC4(CN(CC5CCCC(F)(F)C5)C4)C3)ncnc2s1 (centres unmarked) [Example 63]" target="wild-type menin / MLL-AF9 fusion protein (Homo sapiens)" parameter_measured=IC50 measured_result="< 100 nM"
molecule="Cc1c(CN2CCC3(CCN(c4ncnc5sc(CC(F)(F)F)cc45)C3)C2)ccc2[nH]c(C#N)cc12 (racemic) [Example 30]" target="wild-type menin / MLL-AF9 fusion protein (Homo sapiens)" parameter_measured=IC50 measured_result="< 100 nM"
molecule="CCC(C)CN1CC2(CCN(c3ncnc4sc(CC(F)(F)F)cc34)C2)C1 (centres unmarked) [Example 110]" target="wild-type menin / MLL-AF9 fusion protein (Homo sapiens)" parameter_measured=IC50 measured_result="100 to 1000 nM"
molecule="Cc1c(CN2CC3(C2)CN(c2ncnc4sc(CC(F)(F)F)cc24)C3)ccc2[nH]c(C#N)cc12 [Example 67]" target="wild-type menin / MLL-AF9 fusion protein (Homo sapiens)" parameter_measured=IC50 measured_result="100 to 1000 nM"
molecule="FC(F)(F)Cc1cc2c(N3CC4(CCN(Cc5ccccc5)C4)C3)ncnc2s1 [Example 95]" target="wild-type menin / MLL-AF9 fusion protein (Homo sapiens)" parameter_measured=IC50 measured_result="≥ 1000 nM"
molecule="COC1CCC(CN2CC3(C2)CN(c2ncnc4sc(CC(F)(F)F)cc24)C3)CC1 (centres unmarked) [Example 75]" target="wild-type menin / MLL-AF9 fusion protein (Homo sapiens)" parameter_measured=IC50 measured_result="100 to 1000 nM"

Would you kindly look at the next entry?
molecule CCS(=O)(=O)N[C@H]1CC[C@H](CN2CC3(C2)CN(c2ncnc4sc(CC(F)(F)F)cc24)C3)CC1 [Example 71] , IC50 observed: 100 to 1000 nM

###

Below, each of the molecules is paired with its reported pIC50 value.
Target: menin/MLL (Gal4-Menin and MLL1-46-VP16) in HEK293 cells (Homo sapiens, UniProt O00255)
Sequence (O00255 whole entry, species assumed, the tested form may be a part): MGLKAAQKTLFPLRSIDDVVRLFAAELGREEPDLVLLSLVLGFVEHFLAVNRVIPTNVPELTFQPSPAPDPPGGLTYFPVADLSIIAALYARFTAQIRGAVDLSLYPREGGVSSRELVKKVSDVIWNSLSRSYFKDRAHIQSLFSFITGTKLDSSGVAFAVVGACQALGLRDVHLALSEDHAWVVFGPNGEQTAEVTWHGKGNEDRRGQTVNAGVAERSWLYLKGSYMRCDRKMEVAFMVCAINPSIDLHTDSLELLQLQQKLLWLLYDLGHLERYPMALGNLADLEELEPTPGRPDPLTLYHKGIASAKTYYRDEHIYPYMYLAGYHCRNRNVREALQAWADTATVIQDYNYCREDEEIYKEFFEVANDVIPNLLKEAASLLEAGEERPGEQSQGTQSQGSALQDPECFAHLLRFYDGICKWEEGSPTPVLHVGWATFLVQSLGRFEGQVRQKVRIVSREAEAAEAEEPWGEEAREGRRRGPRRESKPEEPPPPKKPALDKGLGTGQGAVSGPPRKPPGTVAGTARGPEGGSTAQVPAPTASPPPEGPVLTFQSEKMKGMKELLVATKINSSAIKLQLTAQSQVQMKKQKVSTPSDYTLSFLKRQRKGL
Sequence (P04386 1-147 partner limits assumed, species assumed): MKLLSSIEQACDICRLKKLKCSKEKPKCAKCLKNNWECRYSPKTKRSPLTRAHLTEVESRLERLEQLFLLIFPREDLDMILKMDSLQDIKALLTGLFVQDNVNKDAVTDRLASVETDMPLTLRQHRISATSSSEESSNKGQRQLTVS
Method Description: Mammalian cellular two-hybrid assay in HEK293 cells (Assay 2, cell assay)
Settings: Gal4-Menin/MLL1-46-VP16 two-hybrid, NanoLuc luciferase reporter, 16-18 h
pIC50: −log10 of the molar value.

molecule="O=c1[nH]c2cc(CN3CCC4(CCN(c5ncnc6cc(CC(F)(F)F)sc56)C4)C3)ccc2n1CCO (centres unmarked) [Example 119]" target="menin/MLL (Gal4-Menin and MLL1-46-VP16) in HEK293 cells (Homo sapiens, UniProt O00255)" measured_result="6.00 to 7.00"
molecule="CC(=O)Nc1ccc(CN2CCC3(CCN(c4ncnc5sc(CC(F)(F)F)cc45)C3)C2)cc1 (centres unmarked) [Example 34]" target="menin/MLL (Gal4-Menin and MLL1-46-VP16) in HEK293 cells (Homo sapiens, UniProt O00255)" measured_result="6.00 to 7.00"
molecule="CC(=O)Nc1ccc(CN2CCC3(CCN(c4ncnc5sc(CC(F)(F)F)cc45)C3)C2)c(C)c1 (centres unmarked) [Example 42]" target="menin/MLL (Gal4-Menin and MLL1-46-VP16) in HEK293 cells (Homo sapiens, UniProt O00255)" measured_result="6.00 to 7.00"

molecule FC(F)(F)Cc1cc2c(N3CC4(CN(CC5CCCCC5)C4)C3)ncnc2s1 [Example 69] , pIC50 observed: 6.00 to 7.00

molecule FC(F)(F)Cc1cc2c(N3CC4(CCN(Cc5ccccc5)CC4)C3)ncnc2s1 [Example 98] , pIC50 observed: 6.00 to 7.00

molecule O=c1[nH]c2ccc(CN3CCC4(CCN(c5ncnc6sc(CC(F)(F)F)cc56)C4)C3)cc2[nH]1 (centres unmarked) [Example 39] , pIC50 observed: > 7.00

molecule Cc1c(CN2CCC3(C2)CN(c2ncnc4sc(CC(F)(F)F)cc24)C3)ccc2[nH]c(C#N)cc12 [Example 92] , pIC50 observed: 6.00 to 7.00

molecule CC(C)CN1CC2(CCN(c3ncnc4sc(CC(F)(F)F)cc34)C2)C1 [Example 108] , pIC50 observed: 6.00 to 7.00

molecule Cn1c(=O)[nH]c2cc(CN3CCC4(CCN(c5ncnc6sc(CC(F)(F)F)cc56)C4)C3)ccc21 (centres unmarked) [Example 41] , pIC50 observed: > 7.00

molecule CC(C)CN1CC2(CCN(c3ncnc4sc(CC(F)(F)F)cc34)CC2)C1 [Example 2] , pIC50 observed: ≤ 6.00

molecule COC(=O)N[C@H]1CC[C@H](CN2CCC3(CC2)CN(c2ncnc4sc(CC(F)(F)F)cc24)C3)CC1 [Example 107] , pIC50 observed: 6.00 to 7.00

molecule CCC(C)CN1CC2(CCN(c3ncnc4sc(CC(F)(F)F)cc34)C2)C1 (centres unmarked) [Example 110] , pIC50 observed: 6.00 to 7.00

molecule FC(F)(F)Cc1cc2c(N3CC4(CN(CC5CCCC(F)(F)C5)C4)C3)ncnc2s1 (centres unmarked) [Example 63] , pIC50 observed: 6.00 to 7.00

molecule N#Cc1ccc(CN2CCC3(CCN(c4ncnc5sc(CC(F)(F)F)cc45)C3)C2)cc1 (centres unmarked) [Example 33] , pIC50 observed: 6.00 to 7.00

molecule O=c1[nH]c2ccc(CN3CCC4(CCN(c5ncnc6sc(CC(F)(F)F)cc56)C4)C3)cc2n1CCO (centres unmarked) [Example 120] , pIC50 observed: ≤ 6.00

molecule FC(F)(F)Cc1cc2c(N3CCC4(CCN(Cc5ccccc5)C4)CC3)ncnc2s1 [Example 23] , pIC50 observed: ≤ 6.00

molecule CC1(C)CCCC(CN2CC3(C2)CN(c2ncnc4sc(CC(F)(F)F)cc24)C3)C1 (centres unmarked) [Example 65] , pIC50 observed: 6.00 to 7.00

molecule CC(C)CN1CCC2(CCN(c3ncnc4sc(CC(F)(F)F)cc34)CC2)C1 [Example 24] , pIC50 observed: ≤ 6.00

molecule FC(F)(F)Cc1cc2c(N3CC4(CN(CC5CCCC5)C4)C3)ncnc2s1 [Example 68] , pIC50 observed: 6.00 to 7.00

molecule FC(F)(F)Cc1cc2c(N3CCC4(CCN(Cc5ccccc5)C4)C3)ncnc2s1 (centres unmarked) [Example 43] , pIC50 observed: 6.00 to 7.00

molecule Cc1c(CN2CCC3(CCN(c4ncnc5ccc(CC(F)(F)F)cc45)C3)C2)ccc2[nH]c(C#N)cc12 (centres unmarked) [Example 90] , pIC50 observed: 6.00 to 7.00

molecule COC1CCC(CN2CC3(C2)CN(c2ncnc4sc(CC(F)(F)F)cc24)C3)CC1 (centres unmarked) [Example 75] , pIC50 observed: 6.00 to 7.00

molecule FC(F)(F)Cc1cc2c(N3CCC4(CC3)CN(Cc3ccccc3)C4)ncnc2s1 [Example 1] , pIC50 observed: ≤ 6.00

molecule CS(=O)(=O)N[C@H]1CC[C@@H](CN2CCC3(CCN(c4ncnc5sc(CC(F)(F)F)cc45)C3)C2)CC1 (some centres unmarked) [Example 49] , pIC50 observed: 6.00 to 7.00

molecule CC(C)(C)CN1CC2(CCN(c3ncnc4sc(CC(F)(F)F)cc34)CC2)C1 [Example 18] , pIC50 observed: ≤ 6.00

molecule O=c1[nH]c2ccc(CN3CCC4(CCN(c5ncnc6sc(CC(F)(F)F)cc56)C4)C3)cc2o1 (centres unmarked) [Example 40] , pIC50 observed: 6.00 to 7.00

molecule FC(F)(F)Cc1cc2c(N3CC4(CCN(CC5CCOCC5)C4)C3)ncnc2s1 [Example 93] , pIC50 observed: ≤ 6.00

molecule COC(=O)N[C@H]1CC[C@H](CN2CCC3(CCN(c4ncnc5sc(CC(F)(F)F)cc45)C3)C2)CC1 (some centres unmarked) [Example 46] , pIC50 observed: 6.00 to 7.00

Data provenance is patent US20190010167A1.
